Structures can show the parent of a compound that is named as a salt.
experimental readout: melting point

Here is how some compounds turned out for melting point.
O=C(NCc1c(Cl)cccc1Oc1ccccc1)C1CCc2[nH]cnc2C1 (centres unmarked)    197 to 199 °C
O=C(NCCc1ccccc1)C1CCc2[nH]cnc2C1.O=C(O)C(=O)O (centres unmarked)    197 to 199 °C
O=C(NCc1ccccc1Cl)C1CCCc2[nH]cnc21 (centres unmarked) (as salt: hydrochloride)    165 to 167 °C
Cl.O=C(NCCCc1ccc(Cl)cc1)C1CCc2[nH]cnc2C1 (centres unmarked)    146 to 148 °C
C[C@H](NC(=O)C1CCc2[nH]cnc2C1)c1cccc2ccccc12 (some centres unmarked)    158 to 160 °C

Incoming: For the compound C[C@@H](NC(=O)C1CCc2[nH]cnc2C1)c1cccc2ccccc12.Cl (some centres unmarked) , report melting point.
Outgoing: 84 to 85 °C

Incoming: For the compound O=C(NCc1ccccc1)C1CCc2[nH]cnc2C1.O=C(O)C(=O)O (centres unmarked) , report melting point.
Outgoing: 130 to 132 °C

Incoming: For the compound Cl.O=C(Cc1ccc(Cl)cc1)NC1CCc2[nH]cnc2C1 (centres unmarked) , report melting point.
Outgoing: 222 to 224 °C

Incoming: For the compound O=C(NCCc1ccccc1)C1CCCc2[nH]cnc21 (centres unmarked) (as salt: hydrochloride) , report melting point.
Outgoing: 177 to 179 °C

Incoming: For the compound CN(Cc1ccccc1)C(=O)C1CCCc2[nH]cnc21 (centres unmarked) (as salt: hydrochloride) , report melting point.
Outgoing: 211 to 213 °C

Incoming: For the compound Cl.O=C(NCc1cccc2ccccc12)C1CCc2[nH]cnc2C1 (centres unmarked) , report melting point.
Outgoing: 142 to 144 °C
